Values from patent US20090036437A1

Give EC50 for every item shown.
System: Rat L6 cell (rat skeletal myoblast cell)
Experiment: in vitro growth-inhibiting assay of rat L6 cells
Format: cell-based
Details: Table 8; read-out: 50% growth-inhibiting concentration (nM) cytotoxicity L6
One number for each entry, in nM.

>>> readout_value("CN(C)c1ccc2nc3ccc(=[N+](C)C)cc-3oc2c1.CN(C)c1ccc2nc3ccc(=[N+](C)C)cc-3oc2c1.[Cl-].[Cl-].[Cl][Zn][Cl]")
8870
>>> readout_value("CCCC[N+](CCCC)=c1ccc2nc3ccc(N(C)C)cc3oc-2c1.[O-][Cl+3]([O-])([O-])[O-]")
409

Task item: // lookup EC50 for `CCCC[N+](CCCC)=c1ccc2nc3ccc(N(CC)CC)cc3oc-2c1.[Cl-]`
Reply: 839

###

Tested on: Rat L6 cell (rat skeletal myoblast cell)
Assay: in vitro growth-inhibiting assay of rat L6 cells
Format: cell-based
ATTRIBUTE_MEASURED: EC50 (µM)
Answers are plain numbers, in µM.

Example results:
>>> readout_value("CCN(CC)c1ccc2nc3ccc(=[N+](CC)CC)cc-3oc2c1.[Cl-] [A-1 (60% purity)]")
3.95
>>> readout_value("CN(C)c1ccc2nc3ccc(N4CCNCC4)cc3[o+]c2c1.Cl.[Cl-] [Compound A-11, mono-hydrochloride salt]")
63.8

Task item: Short answer please: EC50, Rat L6 cell (rat skeletal myoblast cell), entry CCN(CC)c1ccc2nc3ccc(=[N+](CC)CC)cc-3oc2c1.[Cl-] [A-1 (>95% purity)]
Reply: 20.5

###

System: Rat L6 cell (rat skeletal myoblast cell)
Assay: in vitro growth-inhibiting assay of rat L6 cells
Format: cell-based
Details: Table 10; read-out: growth-inhibiting concentration (nM) Cytotoxicity L6
ATTRIBUTE_MEASURED: EC50 (nM)
Numbers only, in nM.

>>> readout_value("CN(C)c1ccc2nc3ccc(=[N+](C)C)cc-3oc2c1.CN(C)c1ccc2nc3ccc(=[N+](C)C)cc-3oc2c1.[Cl-].[Cl-].[Cl][Zn][Cl]")
8870
>>> readout_value("CCCC[N+](CCCC)=c1ccc2nc3ccc(N(CC)CC)cc3oc-2c1.[Cl-]")
839

Please look at the following compound next.
Task item: // lookup EC50 for `CCCC[N+](CCCC)=c1ccc2nc3ccc(N(C)C)cc3oc-2c1.[O-][Cl+3]([O-])([O-])[O-]`
Reply: 409

###

Test: in vitro growth-inhibiting assay of rat L6 cells
Format: cell-based
Conditions: rat, L6 cells (rat skeletal myoblast cells); Table 3; 72 h, Alamar Blue; read-out: 50% growth-inhibiting concentration (nM) cytotoxicity L6
ATTRIBUTE_MEASURED: EC50 at 72 h (nM)
One number for each entry, in nM.

Task item: // lookup EC50 at 72 h for `CC[N+](CC)=c1ccc2nc3ccc(N(C)C)cc3oc-2c1`
Reply: 4690

###

System: Leishmania donovani (MHOM/ET/67/L82 strain)
Assay: in vitro growth-inhibiting screening assay, protozoa of Leishmaniasis
Assay type: cell-based
Details: Leishmania donovani; amastigotes; 72 h, Alamar Blue; read-out: growth-inhibiting concentration (nM) Leishmania donovani
ATTRIBUTE_MEASURED: EC50 (nM)
Answers are plain numbers, in nM.

Task item: // lookup EC50 for CCCCCCCCCCCCCCCCOP(=O)([O-])OCC[N+](C)(C)C [Miltefosine, reference compound]
Reply: 280

###

Test: in vitro growth-inhibiting assay of rat L6 cells
Type: cell-based
Details: rat; Table 8; read-out: 50% growth-inhibiting concentration (nM) cytotoxicity L6
ATTRIBUTE_MEASURED: EC50 at 72 h

Task item: // lookup EC50 at 72 h for Nc1nc(N)nc(Nc2ccc([As]3SCC(CO)S3)cc2)n1 (stereo not shown) [Melarsoprol, reference compound]
Reply: 7800 nM

###

Test system: Plasmodium Falciparum K1 strain
Assay: in vitro growth-inhibiting screening assay, chloroquine-resistant falciparum malaria
Format: cell-based
Conditions: Plasmodium falciparum, K1, read-out: 50% growth-inhibiting concentration (nM) P. falciparum K1
ATTRIBUTE_MEASURED: EC50 (nM)
One number for each entry, in nM.

Task item: // lookup EC50 for CCN(CC)CCCC(C)Nc1ccnc2cc(Cl)ccc12 (stereo not shown) [Chloroquine, reference compound]
Reply: 150
